- protocol notes: Selectivity index, ratio of IC50 for human GES-1 cells to IC50 for human MGC803 cells
- Format: toxicity
- test parameters: GES-1 cells versus MGC803 cells, read-out: Ratio IC50
measured endpoint: selectivity ratio
Numbers only.

Form: compound = CCCSc1nc(N2CCN(C)CC2)c2[nH]c(=O)c(=O)n(Cc3ccc(Cl)cc3)c2n1 ; selectivity ratio = 4.36
